Assay: E. coli Tat export inhibitors, primary screen, MC4100, TorA-mCherry reporter, fluorescence, single point (AID 488895);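 note: exported cargo escapes ClpAP degradation while cytoplasmic cargo is degraded and loses fluorescence; 0% = median of neutral control wells and 100% = median of NaSCN control wells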
Settings: at 10 µM, active compounds read high
Hit rate of the full screen: of about 340,000 compounds, about 120 (0.035%) were called active. The sample as a whole holds a higher share of actives than the screen did.
MEASURED QUANTITY: inhibition (%)
Field format: number, assumed %, no unit text.

As a guide, the following entries are already answered.
MOLECULE | MEASURED QUANTITY | NUMERIC RESULT
CCNC(=O)CC1C(=O)N(c2ccc(OC)cc2)C(=S)N1CCc1ccncc1 (configuration not stated) | inhibition | 5.06
CC1(C)O[C@@H]2[C@H](O1)[C@@H](COS(=O)(=O)O)O[C@H]2n1ccc(=O)[nH]c1=O | inhibition | -1.01
CC(=O)NC(C(=O)NCC(N)=O)C(C)C (configuration not stated) | inhibition | -5.64
NC(=O)CCC(NS(=O)(=O)c1ccc(Cl)cc1)C(=O)NCc1ccccc1Cl (configuration not stated) | inhibition | -7.83
CCN(C(=O)c1cc([N+](=O)[O-])ccc1NCc1cccnc1)c1ccccc1 | inhibition | -1.18
COc1ccc(COCCN2CCN(S(=O)(=O)c3ccccc3)CCC2=O)cc1 | inhibition | 1.02
O=C(/C=C/Nc1ccc(S(=O)(=O)Nc2cnc3ccccc3n2)cc1)c1cccnc1 | inhibition | -0.716
Cc1ccc(NC(=O)CN(C)C(=O)c2ccc(Cl)c(S(=O)(=O)NCc3ccco3)c2)cc1 | inhibition | -9.55
O=C1CCC/C(=N\NC(=O)NC2CCCCC2)C1 | inhibition | 4.42
Nc1nc(Sc2ncccc2[N+](=O)[O-])n[nH]1 | inhibition | -8.21

Please look at the following molecule next.
State the recorded inhibition for this entry: COc1cc(NS(=O)(=O)c2ccc(NC(=O)c3ccc([N+](=O)[O-])cc3)cc2)ncn1
-6.48

* * *

Test: E. coli Tat export inhibitors, primary screen, MC4100, TorA-mCherry reporter, fluorescence, single point (AID 488895);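 note: exported cargo escapes ClpAP degradation while cytoplasmic cargo is degraded and loses fluorescence; 0% = median of neutral control wells and 100% = median of NaSCN control wells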
Conditions: at 10 µM, active compounds read high
Screen size: about 340,000 compounds; about 120 (0.035%) were called active. What follows is part of a selection rich in actives, with near analogues and random picks from the rest.
MEASURED QUANTITY: inhibition (%)
Field format: number, assumed %, no unit text.

State the recorded inhibition for this entry: CCc1ccccc1N1C(=O)C2C3CC(=O)C(c4ccccc43)C2C1=O (stereo unspecified)
-1.63

* * *

Below: a set of entries, each annotated with reported inhibition.
Experiment: E. coli Tat export inhibitors, primary screen, MC4100, TorA-mCherry reporter, fluorescence, single point (AID 488895);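 note: exported cargo escapes ClpAP degradation while cytoplasmic cargo is degraded and loses fluorescence; 0% = median of neutral control wells and 100% = median of NaSCN control wells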
Conditions: at 10 µM, active compounds read high
In all, about 340,000 compounds went through this assay and about 120 (0.035%) were called active. Many of the other results were omitted from the sample, so actives are more common in it than they were.
Field format: number, assumed %, no unit text.

As a guide, the following entries are already answered.
COMPOUND | inhibition (%)
Cc1nn(C)c(Oc2ccc(Cl)cc2)c1C=O | -0.515
C[n+]1ccccc1C1CCCC/C1=N\Nc1ccc([N+](=O)[O-])cc1[N+](=O)[O-] (centres undefined) | -6.35
COC(=O)c1cc2n(n1)CCCNC2=O | -2.39
O=C(NCCO)C(=O)NCC(c1ccc2c(c1)OCO2)N1CCN(c2ccc(F)cc2)CC1 (centres undefined) | 0.936

State the recorded inhibition for this entry: Cc1noc(C)c1CCC(=O)O
1.5

State the recorded inhibition for this entry: O=C(O)CCc1nc2cc(Cl)ccc2n(Cc2ccccc2)c1=O
3.23

State the recorded inhibition for this entry: O=[N+]([O-])c1ncc(Br)cc1Nc1ccccc1
-4.47

State the recorded inhibition for this entry: O=C(NCc1ccc(Cl)cc1)c1cc2c(nc3sccn32)s1
-1.5

State the recorded inhibition for this entry: CC1CCCCC1NC(=O)Cn1c(=O)cnc2ccccc21 (centres undefined)
2.53

State the recorded inhibition for this entry: CCN(CCn1cccn1)Cc1nc(-c2ccc(C(=O)OC)cc2)no1
0.0185
